meta.source: the supplement of paper PMC7125110

Reported self-cleavage kobs at 40 uM GlcN6P values for the following variants.
B1: glmS ribozyme (parent)
chain: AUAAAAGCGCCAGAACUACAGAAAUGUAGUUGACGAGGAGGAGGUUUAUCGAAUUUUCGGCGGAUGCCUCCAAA

Variants of: B1
testDetails: self-cleavage kobs at 40 uM GlcN6P; higher = faster cleavage; RNA array
experimentalSetup: with glucosamine-6-phosphate
This sample holds only a part of the variants without activity.

Example entries and their recorded answers appear below.
>>> recordedvalue("U30A U57G U65G")
"< 1e-05 s⁻¹"
>>> recordedvalue("G44U A52G A53U")
"< 1e-05 s⁻¹"
>>> recordedvalue("G40U U46C")
"4.23e-05 s⁻¹"
>>> recordedvalue("A14C G29A A33U")
"< 1e-05 s⁻¹"
>>> recordedvalue("A15G U30G A33G A48C")
"< 1e-05 s⁻¹"
>>> recordedvalue("A15U A33G G38C G40C C68U")
"< 1e-05 s⁻¹"
>>> recordedvalue("A15U")
"0.000227 s⁻¹"
>>> recordedvalue("G37C A53G")
"< 1e-05 s⁻¹"
>>> recordedvalue("G13U")
"3.52e-05 s⁻¹"
>>> recordedvalue("G40A U65A")
"3.89e-05 s⁻¹"

// lookup self-cleavage kobs at 40 uM GlcN6P for G29U G59C < 1e-05 s⁻¹

// lookup self-cleavage kobs at 40 uM GlcN6P for G9A C11A < 1e-05 s⁻¹

// lookup self-cleavage kobs at 40 uM GlcN6P for A14G U47C 0.000316 s⁻¹

// lookup self-cleavage kobs at 40 uM GlcN6P for G41A U46G G51U < 1e-05 s⁻¹

// lookup self-cleavage kobs at 40 uM GlcN6P for A39G G40U 9.64e-05 s⁻¹
